target: ERRα with PGC-1α (PGC/ERR pathway) (Homo sapiens); assay: PGC/ERR reporter (luciferase) qHTS assay, PGC/ERR-HEK293; settings: primary qHTS; negative = antagonism, positive = agonism
Sequence (P11474 whole entry): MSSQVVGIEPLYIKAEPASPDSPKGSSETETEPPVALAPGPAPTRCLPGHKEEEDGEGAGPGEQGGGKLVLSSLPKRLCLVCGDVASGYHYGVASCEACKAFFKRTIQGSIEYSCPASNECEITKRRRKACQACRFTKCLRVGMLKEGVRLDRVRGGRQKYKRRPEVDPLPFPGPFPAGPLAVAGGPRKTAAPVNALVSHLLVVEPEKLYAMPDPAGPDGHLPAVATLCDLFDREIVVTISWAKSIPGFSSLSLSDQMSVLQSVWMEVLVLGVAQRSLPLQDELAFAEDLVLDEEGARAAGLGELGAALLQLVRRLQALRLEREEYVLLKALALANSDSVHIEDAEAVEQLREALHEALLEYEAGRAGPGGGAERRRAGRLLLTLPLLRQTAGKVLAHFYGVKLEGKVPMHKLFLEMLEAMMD
Where a name gives a salt, the structure may show the parent alone.
Please go through the items and note down their PGC/ERR-HEK293 Primary Efficacy.
A number alone suffices; assume %.

Value of measured PGC/ERR-HEK293 Primary Efficacy for the entry CC[C@@]1(O)C(=O)OCc2c1cc1n(c2=O)Cc2cc3c(CN(C)C)c(O)ccc3nc2-1 [Topotecan hydrochloride] : −69.1

# compound COc1cc([C@@H]2c3cc4c(cc3[C@@H](O[C@@H]3O[C@@H]5CO[C@@H](C)O[C@H]5[C@H](O)[C@H]3O)[C@H]3COC(=O)[C@H]23)OCO4)cc(OC)c1O [Etoposide] ; its PGC/ERR-HEK293 Primary Efficacy = 62.9

For reference, reported PGC/ERR-HEK293 Primary Efficacy for `CC(C)C[C@H](NC(=O)[C@H](Cc1ccccc1)NC(=O)c1cnccn1)B(O)O` stands at −92.2

The compound identified as `Cc1nc(N)nc(N)c1-c1ccc(Cl)c(Cl)c1` registered its PGC/ERR-HEK293 Primary Efficacy at −68.4
